- System: ChaGo
- ASSAY_COMMENT: Cytotoxicity against human ChaGo cells after 3 days by MTT assay
- Format: functional, cell-based
The source made the active and inactive calls. No cut-off for these calls is given here.
TEST_READOUT: Activity

# COMPOUND, EXPERIMENTAL_RESULT
records = [
    ("CC(=O)OC1OC(C2OC2(C)C)C[C@@H]1[C@H]1CC=C2C3(C)C(O)CC4C(C)(C)C(=O)CC[C@]4(C)[C@H]3CC[C@@]21C (stereo partly specified)", "inactive"),
    ("CC(=O)O[C@@H]1C[C@H]2C(C)(C)C(=O)C=C[C@]2(C)[C@H]2CC[C@]3(C)C(=CC[C@H]3[C@H]3CO[C@@H]([C@@H](O)C(C)(C)O)C3)[C@@]21C", "inactive"),
    ("CC(=O)O[C@@H]1C[C@H]2C(C)(C)C(=O)C=C[C@]2(C)[C@H]2CC[C@]3(C)C(=CC[C@H]3[C@@H]3COC(=O)C3)[C@@]21C", "inactive"),
    ("COC(=O)C[C@H]1C(C)(C)[C@@H]2O[C@@]34C[C@@H]2C(=O)[C@]1(C)[C@H]3CC[C@@]1(C)[C@@H](c2ccoc2)OC(=O)C[C@]14O", "inactive"),
    ("COC(=O)C[C@H]1C(C)(C)[C@H](O)[C@@H]2CC3=C4CC(=O)O[C@@H](c5ccoc5)[C@]4(C)CC[C@@H]3[C@@]1(C)C2=O", "inactive"),
    ("CC(=O)O[C@@H]1C[C@H]2C(C)(C)C(=O)C=C[C@]2(C)[C@H]2CC[C@]3(C)C(=CC[C@H]3[C@H]3CO[C@@H](C4(O)OC4(C)C)C3)[C@@]21C (stereo partly specified)", "inactive"),
]
